Measurement Protocol: logD by shake flask method (octanol / PBS pH 7.4, HPLC)
Format: physicochemical
Condition Set: octanol / PBS pH 7.4, shake flask
As shown below, each of these compounds has a reported logD value.

Worked cases, answers included:
compound=CNC(=O)C(=O)CC[C@H](NC(=O)c1oc2ccccc2c1C)C(=O)Nc1cccn(CC(=O)N[C@@H]2C[C@@H]3C[C@H]([C@H]2C)C3(C)C)c1=O assay_result="3 to 5"
compound=CNC(=O)C(=O)CC[C@H](NC(=O)c1snnc1C)C(=O)Nc1cccn(CC(=O)N[C@@H]2C[C@H]3CC[C@@H]2C3)c1=O assay_result="< 1"
compound=CNC(=O)C(=O)CC[C@H](NC(=O)c1cncn1C)C(=O)Nc1cccn(CC(=O)NC23CC4CC(C)(CC(C)(C4)C2)C3)c1=O assay_result="1 to 3"
compound="CCC12CC3CC(C1)C(NC(=O)Cn1cccc(NC(=O)[C@H](CCC(=O)C(=O)NC)NC(=O)c4ccc5cnccc5n4)c1=O)C(C3)C2 (stereo partly shown)" assay_result="3 to 5"
compound=CNC(=O)C(=O)CC[C@H](NC(=O)c1cnnn1C)C(=O)Nc1cccn(CC(=O)N[C@@H]2C[C@@H]3CC[C@H]2C3)c1=O assay_result="< 1"
compound="CNC(=O)C(=O)CC[C@H](NC(=O)c1[nH]c2ccccc2c1C)C(=O)Nc1cccn(CC(=O)NC2C3CC4CC(C3)CC2C4)c1=O (stereo partly shown)" assay_result="1 to 3"

Using the record for CNC(=O)C(=O)CC[C@H](NC(=O)c1ccc(Cl)o1)C(=O)Nc1cccn(CC(=O)NC2C3CC4CC(C3)CC2C4)c1=O (stereo partly shown) , report its logD. 1 to 3

Using the record for CNC(=O)C(=O)CC[C@H](NC(=O)c1cc(Br)c(Cl)s1)C(=O)Nc1cccn(CC(=O)NC2C3CC4CC(C3)CC2C4)c1=O (stereo partly shown) , report its logD. 3 to 5

Using the record for "CNC(=O)C(=O)CC[C@H](NC(=O)c1noc(C)n1)C(=O)Nc1cccn(CC(=O)NC23CC(C2)C3)c1=O" , report its logD. < 1

Using the record for CNC(=O)C(=O)CC[C@H](NC(=O)c1cc(Br)c(Br)o1)C(=O)Nc1cccn(CC(=O)NC2C3CC4CC(C3)CC2C4)c1=O (stereo partly shown) , report its logD. 3 to 5

Using the record for CNC(=O)C(=O)CC[C@H](NC(=O)c1cc2ccccc2o1)C(=O)Nc1cccn(CC(=O)NC2C3CC4CC(C3)CC2C4)c1=O (stereo partly shown) , report its logD. 1 to 3

Using the record for CNC(=O)C(=O)CC[C@H](NC(=O)c1cn[nH]n1)C(=O)Nc1cccn(CC(=O)NC2C3CC4CC(C3)CC2C4)c1=O (stereo partly shown) , report its logD. < 1

Using the record for "CCn1c(C(=O)N[C@@H](CCC(=O)C(=O)NC2CCCCC2)C(=O)Nc2cccn(CC(=O)NC34CC(C3)C4)c2=O)cc2ccccc21" , report its logD. 1 to 3

* * *

Measurement Protocol: Single-dose oral pharmacokinetic profile in mice
Format: in vivo
Condition Set: mouse; male C57BL/6 mice, single oral dose 200 mg/kg, plasma
Assay Endpoint: AUC(0-t) (ng·h/mL)
The reply should be a number in ng·h/mL, with the unit left off.

Worked cases, answers included:
compound="CNC(=O)C(=O)CC[C@H](NC(=O)c1cc(Cl)sc1Cl)C(=O)Nc1cccn(CC(=O)NC2C3CC4CC(C3)CC2C4)c1=O (stereo partly drawn)" output_unit=ng·h/mL assay_result=14500
compound="CNC(=O)C(=O)CC[C@H](NC(=O)c1oc2ccccc2c1C)C(=O)Nc1cccn(CC(=O)NC2C3CC4CC(C3)CC2C4)c1=O (stereo partly drawn)" output_unit=ng·h/mL assay_result=12000

Using the record for CNC(=O)C(=O)CC[C@H](NC(=O)c1sc(C(F)(F)F)nc1C)C(=O)Nc1cccn(CC(=O)NC2C3CC4CC(C3)CC2C4)c1=O (stereo partly drawn) , report its AUC(0-t). 36900

* * *

As shown below, each of these compounds has a reported pIC50 value.
Target: recombinant human transglutaminase 2 (Homo sapiens, UniProt P21980)
Construct: purchased Zedira T022
Sequence (P21980 1-687): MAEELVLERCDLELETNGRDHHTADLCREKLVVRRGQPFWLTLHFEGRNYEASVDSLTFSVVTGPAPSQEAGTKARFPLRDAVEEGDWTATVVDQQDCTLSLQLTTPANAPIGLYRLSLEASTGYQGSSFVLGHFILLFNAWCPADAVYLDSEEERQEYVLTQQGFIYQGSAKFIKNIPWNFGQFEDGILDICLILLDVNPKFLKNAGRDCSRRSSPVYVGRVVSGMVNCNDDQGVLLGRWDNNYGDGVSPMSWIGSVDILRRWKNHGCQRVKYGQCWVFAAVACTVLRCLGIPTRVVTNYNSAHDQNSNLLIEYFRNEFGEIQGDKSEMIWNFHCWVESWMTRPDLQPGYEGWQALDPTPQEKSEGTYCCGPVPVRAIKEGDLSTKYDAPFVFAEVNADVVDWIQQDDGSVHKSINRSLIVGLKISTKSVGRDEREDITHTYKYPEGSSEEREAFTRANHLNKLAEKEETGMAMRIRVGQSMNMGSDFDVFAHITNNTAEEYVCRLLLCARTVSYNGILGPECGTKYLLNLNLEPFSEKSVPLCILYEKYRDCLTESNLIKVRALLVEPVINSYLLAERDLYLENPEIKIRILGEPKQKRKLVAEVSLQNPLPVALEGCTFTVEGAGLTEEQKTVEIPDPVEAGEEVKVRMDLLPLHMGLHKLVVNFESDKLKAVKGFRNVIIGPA
Measurement Protocol: Transglutaminase assay (DCC-assay): incorporation of dansylcadaverine into dimethylcasein
Format: biochemical
Condition Set: recombinant human TG2 10 nM; dansylcadaverine incorporation into dimethylcasein; read-out: IC50 TG2
pIC50: −log10 of the molar value.

Worked cases, answers included:
compound="CNC(=O)C(=O)CC[C@H](NC(=O)c1cc(Cl)sc1Cl)C(=O)Nc1cccn(CC(=O)NC2C3CC4CC(C3)CC2C4)c1=O (stereo partly drawn)" target="recombinant human transglutaminase 2 (Homo sapiens, UniProt P21980)" assay_endpoint=pIC50 assay_result="> 7.40"
compound=NC(=O)C(=O)CC[C@H](NC(=O)c1cc2ccccc2o1)C(=O)Nc1cccn(CC(=O)N[C@@H]2C[C@@H]3CC[C@H]2C3)c1=O target="recombinant human transglutaminase 2 (Homo sapiens, UniProt P21980)" assay_endpoint=pIC50 assay_result="> 7.40"

Consider now this further compound.
Recall the recorded pIC50 for "CNC(=O)C(=O)CC[C@H](NC(=O)c1c[nH]cn1)C(=O)Nc1cccn(CC(=O)NC[C@@H]2CC[C@@H]3C[C@H]2C3(C)C)c1=O" with recombinant human transglutaminase 2 (Homo sapiens, UniProt P21980) and state it. 5.60 to 6.40

* * *

Measurement Protocol: Single-dose oral pharmacokinetic profile in mice
Type: in vivo
Condition Set: mouse, plasma; male C57BL/6 mice, single oral dose 200 mg/kg
Description: Presumed from promising Papp values (permeability coefficients, see below), the 5 inventors had proven the oral bioavailability of the inhibitors of the present application by the representative compounds II-3, II-15, and II-28. For this selected set of representative compounds, pharmacokinetic profiles were determined in male C57BL/6 mice (N=3, each). […]
As shown below, each of these compounds has a reported CL/F value.
Give the figure together with its unit, number first.

Using the record for CNC(=O)C(=O)CC[C@H](NC(=O)c1oc2ccccc2c1C)C(=O)Nc1cccn(CC(=O)NC2C3CC4CC(C3)CC2C4)c1=O (stereo partly drawn) [II-3] , report its CL/F. 277 mL/min/kg

Using the record for CNC(=O)C(=O)CC[C@H](NC(=O)c1cc(Cl)sc1Cl)C(=O)Nc1cccn(CC(=O)NC2C3CC4CC(C3)CC2C4)c1=O (stereo partly drawn) [II-28] , report its CL/F. 247 mL/min/kg

Using the record for CNC(=O)C(=O)CC[C@H](NC(=O)c1sc(C(F)(F)F)nc1C)C(=O)Nc1cccn(CC(=O)NC2C3CC4CC(C3)CC2C4)c1=O (stereo partly drawn) [II-15] , report its CL/F. 102 mL/min/kg

* * *

Measurement Protocol: logD by shake flask method (octanol / PBS pH 7.4, HPLC)
Assay type: physicochemical
Condition Set: octanol / PBS pH 7.4, shake flask
Protocol: In order to classify the inventive compounds according to their lipophilicity, LogD values (distribution coefficient) were determined by means of the well-established shake flask method, measuring the partition of a compound between an octanol and phosphate-buffered saline (PBS, pH 7.4) by HPLC. The LogD is pH dependent and is a “predictor” for in-vivo properties. LogD combines lipophilicity (intrinsic structural property of the molecule, logP) and ionizability (pKa). […]
As shown below, each of these molecules has a reported logD value.

Worked cases, answers included:
molecule="CNC(=O)C(=O)CC[C@H](NC(=O)c1cc(Br)co1)C(=O)Nc1cccn(CC(=O)NC2C3CC4CC(C3)CC2C4)c1=O (stereo partly shown) [II-47]" assay_endpoint=logD assay_result="1 to 3"
molecule="CNC(=O)C(=O)CC[C@H](NC(=O)c1cnc(C(C)C)o1)C(=O)Nc1cccn(CC(=O)NC23CCC(C2)C3)c1=O [II-170]" assay_endpoint=logD assay_result="< 1"
molecule="CNC(=O)C(=O)CC[C@H](NC(=O)c1cn(C)nn1)C(=O)Nc1cccn(CC(=O)NC2C3CC4CC(C3)CC2C4)c1=O (stereo partly shown) [II-133]" assay_endpoint=logD assay_result="< 1"

Consider now this further molecule.
Using the record for CNC(=O)C(=O)CC[C@H](NC(=O)[C@@H]1CCCNC1)C(=O)Nc1cccn(CC(=O)NC2C3CC4CC(C3)CC2C4)c1=O (stereo partly shown) [II-59] , report its logD. 1 to 3
